- System: Danio rerio Tg(wt1b:EGFP) embryo, pronephros
- Test: pronephric angle neck segment to proximal convoluted tubule (mean of left and right), fold change vs DMSO control; higher = larger pronephric angle
- Assay Conditions: 25 µM; exposure: 24-48 hpf
Structures can show the parent of a compound that is named as a salt.
Values of pronephric angle neck segment greater than or equal to 1 map to condition met; values below map to condition not met.

Compound	Category
CN(C)CCc1c[nH]c2ccc(C[C@H]3COC(=O)N3)cc12 [Zolmitriptan]	condition met
CCN(CC)Cc1cc(Nc2ccnc3cc(Cl)ccc23)ccc1O [Amodiaquin dihydrochloride dihydrate]	condition not met
O=c1oc2ccccc2c(O)c1Cc1c(O)c2ccccc2oc1=O [Dicumarol]	condition met
CC(C)c1ccc2oc3nc(N)c(C(=O)O)cc3c(=O)c2c1 [Amlexanox]	condition not met
C=C1c2c(Cl)ccc(O)c2C(=O)C2=C(O)[C@]3(O)C(=O)C(C(N)=O)=C(O)[C@@H](N(C)C)[C@@H]3[C@@H](O)[C@H]12.O=C(O)c1cc(S(=O)(=O)O)ccc1O [Meclocycline sulfosalicylate]	condition not met
